Test system: HIV-1 IIIB
Conditions: read-out: EC50 (μM) (M ± SD) for inhibition of p24; HIV-1 IIIB, MT-2 cells
Attribute measured: EC50

Compound	Test system	EC50
O=C1NC(=S)S/C1=C\c1ccc(-c2ccc(Cl)c(C(=O)O)c2)o1 [NB185]	HIV-1 IIIB	76.9 µM
C#CCN1C(=O)S/C(=C\c2ccc(-c3cc(C(=O)O)ccc3Cl)o2)C1=O [NB203]	HIV-1 IIIB	> 100 µM
C#CCN1C(=O)S/C(=C\c2ccc(-c3cccc(C(=O)O)c3)o2)C1=O [NB216]	HIV-1 IIIB	> 100 µM
Cc1c(C(=O)O)cccc1-c1ccc(/C=C2\SC(=O)N(CC(=O)Nc3ccccc3F)C2=O)o1 [NB195]	HIV-1 IIIB	> 100 µM
O=C(O)c1cccc(-c2ccc(/C=C3\SC(=S)N(Cc4ccccc4)C3=O)o2)c1 [NB182]	HIV-1 IIIB	0.83 µM

For each listed entry, give its EC50.
1. O=C(O)CN1C(=O)/C(=C/c2ccc(-c3cccc(C(=O)O)c3)o2)SC1=S [NB180]
2. Cc1ccc(C(=O)O)cc1-c1ccc(/C=C2\SC(=O)N(c3ccccc3)C2=O)o1 [NB187]

Response given:
["> 100 µM", "> 100 µM"]

Provide EC50 values for the following items, in order.
1. Cc1cccc(NC(=O)CN2C(=O)S/C(=C\c3ccc(-c4ccc(Cl)c(C(=O)O)c4)o3)C2=O)c1 [NB207]
2. O=C(O)c1cccc(-c2ccc(/C=C3\SC(=S)N(c4cccc5ccccc45)C3=O)o2)c1 [NB221]
3. Cc1ccc(N2C(=O)/C(=C/c3ccc(-c4cccc(C(=O)O)c4)o3)SC2=S)c(C)c1 [NB146]
4. Cc1c(C(=O)O)cccc1-c1ccc(/C=C2\SC(=S)N(CC(=O)O)C2=O)o1 [NB228]
5. Cc1cccc(NC(=O)CN2C(=O)S/C(=C\c3ccc(-c4cccc(C(=O)O)c4C)o3)C2=O)c1 [NB209]
6. O=C(O)c1cccc(-c2ccc(/C=C3\SC(=S)N(c4ccc(F)cc4)C3=O)o2)c1 [NB229]

Response given:
1: > 100 µM; 2: 0.46 µM; 3: 0.299 µM; 4: > 100 µM; 5: > 100 µM; 6: > 100 µM

Fill in EC50 for each of the 3 compounds listed.
1. CCOC(=O)CN1C(=O)S/C(=C\c2ccc(-c3ccc(Cl)c(C(=O)O)c3)o2)C1=O [NB204]
2. Cc1cccc(NC(=O)CN2C(=O)S/C(=C\c3ccc(-c4cc(C(=O)O)ccc4Cl)o3)C2=O)c1 [NB198]
3. O=C(O)c1cccc(-c2ccc(/C=C3\SC(=S)N(c4cccc(Cl)c4)C3=O)o2)c1 [NB145]

Response given:
1: > 100 µM; 2: > 100 µM; 3: 0.18 µM

Challenge: State the recorded EC50 for this entry: C#CCN1C(=O)S/C(=C\c2ccc(-c3cc(C(=O)O)ccc3C)o2)C1=O [NB205]
Response given: > 100 µM

* * *

Tested on: 94UG103 (clade A, X4R5)
Settings: read-out: EC50 (μM) (Mean ± SD)
Experimental: Inhibitory activity of compounds on infection by primary HIV-1 isolates was determined as previously described (37). PBMCs were isolated from the blood of healthy donors at the New York Blood Center by standard density gradient centrifugation using Histopaque-1077 (Sigma). The cells were plated in 75 cm^2 plastic flasks and incubated at 37° C. for 2 hrs. […] The percent inhibition of p24 production and IC50 values were calculated as described above.
For each of the compounds below, state its EC50.

Here is how some compounds turned out for EC50.
Compound	Reported measurement
O=C(O)c1cc(-c2ccc(/C=C3\SC(=S)N(CCc4ccccc4)C3=O)o2)ccc1Cl [NB206]	0.004 µM
O=C(O)c1cccc(-c2ccc(/C=C3\SC(=S)N(c4ccc(Cl)cc4Cl)C3=O)o2)c1 [NB231]	0.125 µM

Challenge: # EC50 lookup, item CCN1C(=O)/C(=C/c2ccc(-c3cccc(C(=O)O)c3)o2)SC1=S [NB179]
Response given: 0.088 µM

* * *

The following molecules have recorded CC50 on MT-2 cells.

Some entries whose results are on file:
Compound structure string	CC50
C#CCN1C(=O)S/C(=C\c2ccc(-c3cc(C(=O)O)ccc3Cl)o2)C1=O	> 413 µM
Cc1ccc(NC(=O)CN2C(=O)S/C(=C\c3ccc(-c4cccc(C(=O)O)c4)o3)C2=O)cc1	207 µM
CCN1C(=O)/C(=C/c2ccc(-c3ccc(Cl)c(C(=O)O)c3)o2)SC1=S	44.8 µM
O=C1NC(=S)S/C1=C\c1ccc(-c2cccc(C(=O)O)c2)o1	> 483 µM

// for each molecule below, give its CC50
1. C=CCN1C(=O)/C(=C/c2ccc(-c3cccc(C(=O)O)c3)o2)SC1=S
2. C=CCN1C(=O)/C(=C/c2ccc(-c3cccc(C(=O)O)c3C)o2)SC1=S
3. COc1ccccc1N1C(=O)/C(=C/c2ccc(-c3cccc(C(=O)O)c3)o2)SC1=S
4. Cc1ccc(NC(=O)CN2C(=O)S/C(=C\c3ccc(-c4ccc(Cl)c(C(=O)O)c4)o3)C2=O)cc1
5. O=C(O)CN1C(=O)/C(=C/c2ccc(-c3cccc(C(=O)O)c3)o2)SC1=S

Response given:
["174 µM", "> 414 µM", "> 368 µM", "> 322 µM", "> 411 µM"]

* * *

System: 92US657 (clade B, R5)
Details: read-out: EC50 (μM) (Mean ± SD)
So I've got a bunch of molecules here, and I need their EC50 values.
Answers are plain numbers, in µM.

Reference set, count: 2
Compound structure string	Reported measurement
CCN1C(=O)/C(=C/c2ccc(-c3cccc(C(=O)O)c3)o2)SC1=S	0.847
O=C(O)c1cccc(-c2ccc(/C=C3\SC(=S)N(c4ccc(Cl)cc4Cl)C3=O)o2)c1	1.06

Challenge: // query EC50 value for entry O=C(O)c1cc(-c2ccc(/C=C3\SC(=S)N(CCc4ccccc4)C3=O)o2)ccc1Cl
Response given: 0.216

* * *

Test system: HIV-1IIIB infected H9 cells (H9/HIV-1IIIB) and MT-2 cells
Experiment: HIV-1 mediated cell-cell fusion (dye transfer assay)
Type: cell-based
Attribute measured: IC50

Challenge: IC50 for O=C(O)c1cc(-c2ccc(/C=C3\SC(=S)N(CCc4ccccc4)C3=O)o2)ccc1Cl ?
Response given: < 667 nM

* * *

Test system: HIV-1 IIIB
Conditions: selectivity index
I'd be grateful if you could share measured SI (CC50/EC50) for these entries.
Give bare numbers.

Compound	Attribute measured	Reported measurement
Cc1ccc(N2C(=O)/C(=C/c3ccc(-c4cccc(C(=O)O)c4)o3)SC2=S)c(C)c1 [NB146]	SI (CC50/EC50)	103.15
O=C(O)c1cc(-c2ccc(/C=C3\SC(=S)N(c4ccc(Cl)cc4)C3=O)o2)ccc1Cl [NB213]	SI (CC50/EC50)	181.04
O=C(O)c1cc(-c2ccc(/C=C3\SC(=S)N(Cc4ccc(F)cc4)C3=O)o2)ccc1Cl [NB208]	SI (CC50/EC50)	29.77
O=C(O)c1cc(-c2ccc(/C=C3\SC(=S)N(CCc4ccccc4)C3=O)o2)ccc1Cl [NB206]	SI (CC50/EC50)	981.11
O=C(O)c1cc(-c2ccc(/C=C3\SC(=S)N(C4CCCCC4)C3=O)o2)ccc1Cl [NB219]	SI (CC50/EC50)	78.97

Challenge: Lookup: SI (CC50/EC50) / HIV-1 IIIB / Cc1cccc(N2C(=O)/C(=C/c3ccc(-c4cccc(C(=O)O)c4)o3)SC2=S)c1 [NB150]
Response given: 125.69

* * *

Tested on: MT-2 cells
Settings: read-out: Cytotoxicity CC50 (μM) (M ± SD); MT-2 cells
Task for the reader: assign each of the following molecules its reported CC50.

Give me CC50 for each of these molecules, listed below.
1. O=C(O)c1cc(-c2ccc(/C=C3\SC(=S)N(c4ccc([N+](=O)[O-])cc4)C3=O)o2)ccc1Cl
2. COc1ccc(N2C(=O)/C(=C/c3ccc(-c4cccc(C(=O)O)c4)o3)SC2=S)cc1

Response given:
> 328 µM
> 399 µM

For every listed record, write down its CC50.
1. O=C(O)c1cccc(-c2ccc(/C=C3\SC(=S)N(C4CCCCC4)C3=O)o2)c1
2. O=C(O)c1cc(-c2ccc(/C=C3\SC(=O)N(Cc4ccc(F)cc4)C3=O)o2)ccc1Cl
3. O=C1/C(=C/c2ccc(-c3cccc(Cl)c3)o2)SC(=S)N1c1ccccc1
4. O=C(O)c1cccc(-c2ccc(/C=C3\SC(=O)N(c4ccc(Cl)cc4)C3=O)o2)c1

Response given:
1. > 387 µM
2. > 349 µM
3. > 402 µM
4. > 376 µM

Batch lookup, CC50 per entry.
1. Cc1cccc(N2C(=O)/C(=C/c3ccc(-c4cccc(C(=O)O)c4)o3)SC2=S)c1
2. O=C(O)c1cccc(-c2ccc(/C=C3\SC(=S)N(c4cccc5ccccc45)C3=O)o2)c1

Response given:
1: 38.7 µM; 2: 34.5 µM
